TARGET_OF_ASSAY: Human recombinant Top1 (Homo sapiens, UniProt P11387)
Construct: made in house
Sequence (P11387 whole entry): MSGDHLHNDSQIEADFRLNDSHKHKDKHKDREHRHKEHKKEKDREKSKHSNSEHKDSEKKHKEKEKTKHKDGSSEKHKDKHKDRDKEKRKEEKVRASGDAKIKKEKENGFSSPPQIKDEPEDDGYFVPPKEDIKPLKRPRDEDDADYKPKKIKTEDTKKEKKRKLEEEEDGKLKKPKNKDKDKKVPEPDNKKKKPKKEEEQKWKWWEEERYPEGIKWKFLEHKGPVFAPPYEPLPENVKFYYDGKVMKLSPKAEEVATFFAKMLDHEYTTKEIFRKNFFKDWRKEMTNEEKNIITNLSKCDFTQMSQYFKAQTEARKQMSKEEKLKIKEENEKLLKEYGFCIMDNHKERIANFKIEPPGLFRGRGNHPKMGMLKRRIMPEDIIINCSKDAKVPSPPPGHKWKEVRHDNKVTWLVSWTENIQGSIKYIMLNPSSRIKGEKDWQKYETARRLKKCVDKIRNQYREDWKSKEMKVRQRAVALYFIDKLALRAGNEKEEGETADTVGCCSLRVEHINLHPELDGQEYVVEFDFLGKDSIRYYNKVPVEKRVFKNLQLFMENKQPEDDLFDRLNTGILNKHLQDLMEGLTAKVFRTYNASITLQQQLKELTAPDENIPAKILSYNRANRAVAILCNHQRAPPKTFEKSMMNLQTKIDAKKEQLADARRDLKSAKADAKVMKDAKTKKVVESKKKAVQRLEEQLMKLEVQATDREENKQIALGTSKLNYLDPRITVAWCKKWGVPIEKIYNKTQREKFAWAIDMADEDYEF
ASSAY_METHOD_TEXT: Topoisomerase 1-mediated DNA cleavage reactions (B), 117-bp DNA oligonucleotide
Type: biochemical
Parameters: key: 0, no detectable activity; +, weak activity; ++, similar activity to compound 33; +++, greater activity than 33; ++++, equipotent to 32; Ambiguous scores (e.g., between two values) are designated with parentheses (e.g., ++(+) would be between ++ and +++)
MEASUREMENT_CONDITIONS: Table 5; relative to compounds 32 and 33
MEASURED_ATTRIBUTE: Top1 inhibitory activity (level)

INPUT: What value of measured Top1 inhibitory activity (level) is listed for "CCNCCCOc1cc2c3c(n(CCCN4CCOCC4)c(=O)c2cc1OC)-c1cc2c(cc1C3=O)OCO2" ?
OUTPUT: +++

INPUT: What value of measured Top1 inhibitory activity (level) is listed for "COc1cc2c(=O)n(CCCN3CCOCC3)c3c(c2cc1OCCCN(C)C)C(=O)c1cc2c(cc1-3)OCO2" ?
OUTPUT: +++

INPUT: What value of measured Top1 inhibitory activity (level) is listed for "COc1cc2c(=O)n(CCCN3CCOCC3)c3c(c2cc1OCCCN1CCN(C)CC1)C(=O)c1cc2c(cc1-3)OCO2" ?
OUTPUT: +++

INPUT: What value of measured Top1 inhibitory activity (level) is listed for "COc1cc2c(=O)n(CCCN3CCOCC3)c3c(c2cc1OCCCN1CCOCC1)C(=O)c1cc2c(cc1-3)OCO2" ?
OUTPUT: +++

INPUT: What value of measured Top1 inhibitory activity (level) is listed for "COc1cc2c(=O)n(CCCN3CCOCC3)c3c(c2cc1OCCCN1CCCC1)C(=O)c1cc2c(cc1-3)OCO2" ?
OUTPUT: ++

INPUT: What value of measured Top1 inhibitory activity (level) is listed for "C=CCOc1cc2c3c(n(CCCN4CCOCC4)c(=O)c2cc1OC)-c1cc2c(cc1C3=O)OCO2" ?
OUTPUT: + or ++

New cases:
INPUT: What value of measured Top1 inhibitory activity (level) is listed for "COc1cc2c(=O)n(CCCN3CCOCC3)c3c(c2cc1OCCCN1CCCCC1)C(=O)c1cc2c(cc1-3)OCO2" ?
OUTPUT: +++

INPUT: What value of measured Top1 inhibitory activity (level) is listed for COc1cc2c(=O)n(CCCN3CCOCC3)c3c(c2cc1OCC(=O)NN)C(O)c1cc2c(cc1-3)OCO2 (stereo not drawn) ?
OUTPUT: + or ++

INPUT: What value of measured Top1 inhibitory activity (level) is listed for "COC(=O)COc1cc2c3c(n(CCCN4CCOCC4)c(=O)c2cc1OC)-c1cc2c(cc1C3=O)OCO2" ?
OUTPUT: + or ++
